Where do the numbers come from? From PubChem BioAssay (NCI).

system: NCI-H226 lung; assay: NCI tumour cell line growth inhibition, 48 h
Kindly supply the reported TGI values for the records listed here.

Field: example entries. Status: answers known.
compound	TGI
COc1ccccc1CNC(=O)[C@H](Cc1ccc(O)cn1)NC(C)=O	> 100 µM
N#CC1=C(Cl)NC(Cl)=C(C#N)C1c1c(Cl)cccc1Cl	> 100 µM
Cn1c2ccccc2c(=O)c2[nH]c3ccccc3c21	> 100 µM
COc1cc(/C=C/C(=O)c2cccnc2Nc2ccc(F)cc2)cc(OC)c1OC	3.78 µM
CC1=CC(=O)N(c2c(C)cccc2Cl)C(C)N1 (stereo not drawn)	> 100 µM

// for each compound below, give its TGI
1. Cc1cc2c(cc1N)C(C)C1(CCC(=O)N2Cc2ccccc2)OCCO1 (stereo not drawn)
2. O=C(O)/C=C/C(=O)N1C/C(=C\c2ccccc2)C(=O)/C(=C/c2ccccc2)C1
3. CN(C)CC1CN=C(NC(=O)Nc2ccccc2)O1 (stereo not drawn)

Result:
1. > 100 µM
2. 31.3 µM
3. > 100 µM

// for each compound below, give its TGI
1. O=C1C2Nc3ccccc3SC2C(=O)N1c1ccccc1C(F)(F)F (stereo not drawn)
2. Nc1ccc([C@H]2C(=O)N[C@H]3CCC[C@H]32)cc1
3. CCCC[C@H]1CCN2C[C@@H](O)[C@@H](O)[C@H]2[C@@H]1O
4. CC(=O)OCC(Br)C1(C)CCC(C(C)(C)Br)O1 (stereo not drawn)
5. O=C1c2ccccc2C(=O)c2oc(Br)cc21
6. CCCCNC(=S)/N=C/c1c(O)c2ccccc2[nH]c1=O
7. COc1ccc(C2=CC(c3ccc(OC)c(OC)c3)c3c(c4ccccc4oc3=O)O2)cc1OC (stereo not drawn)

Result:
["> 100 µM", "> 100 µM", "> 100 µM", "> 100 µM", "3.22 µM", "> 10 µM", "> 100 µM"]

====

test system: NCI-H226 lung; assay: NCI tumour cell line growth inhibition, 48 h
measure-name: GI50

Example compounds with recorded GI50:
compound	GI50
Clc1nc(Cl)c2ncn(Cc3ccc(Cn4cnc5c(Cl)nc(Cl)nc54)cc3)c2n1	11.2 µM
C/C=C(\C)C(=O)N[C@H]1C(O)C[C@]2(C)C3CC[C@@]4(C)C(CC[C@@H]4C(C)N(C)C)C3CCC2C1O (stereo partly specified)	12.1 µM
COC(=O)[C@@H](C)C[C@H](Cc1ccccc1)NC(=O)c1csc([C@@H](C[C@H](C(C)C)N(C)C(=O)[C@H](C)NC(=O)[C@H]2CCCCN2C)OC(C)=O)n1	> 25 µM
CC(C)COC(=O)c1ccc2[nH]c(O)c(C=Nc3ccc(S(N)(=O)=O)cc3)c2c1	1.73 µM
N#Cc1cc(S(=O)(=O)Nc2nc3ccccc3s2)c(SCc2ccccc2)cc1Cl	31 µM

Below: the item to evaluate.
Measured GI50 for this entry COc1ccc(C2=CC(c3ccc(OC)c(OC)c3)c3c(c4ccccc4oc3=O)O2)cc1OC (stereo unspecified) on NCI-H226 lung: > 21.1 µM

====

So I've got a bunch of molecules here, and I need their TGI values.
system: 786-0 renal; test: NCI tumour cell line growth inhibition, 48 h

Hi, could you look up TGI for each item in my list?
1. O=C(CC1C(=O)Nc2ccccc2S1=O)Nc1ccc(Cl)cc1 (stereo not given)
2. CC(=O)c1cc(C)n2c1CS[C@@H]2c1ccccc1
3. O=[N+]([O-])c1ccc(Cl)cc1C1SCc2nc3ccccc3n21 (stereo not given)
4. C/C=C(\C)C(=O)N[C@H]1C(O)C[C@]2(C)C3CC[C@@]4(C)C(CC[C@@H]4C(C)N(C)C)C3CCC2C1O (stereo not given in full)

Result:
1: > 100 µM; 2: 50.5 µM; 3: > 100 µM; 4: 10.6 µM

Below are some molecules; for each one, tell me its TGI.
1. CCN(CC)CCOc1ccc(C(=O)/C=C\c2ccc(Cl)cc2Cl)cc1
2. Cc1cccc2c(N)c3ccccc3nc12

Result:
1. 20.3 µM
2. 7.49 µM

// for each molecule in input: emit TGI
1. CC[C@@H]1/C=C/C=C/C[C@H](C)[C@@H](O)[C@](C)(O)C(=O)[C@H](C)[C@@H](O)[C@H](C)C(=O)[C@H](C)[C@@H](O)[C@H](C)/C=C/C(=O)O[C@H]2[C@@H](C)[C@@H](CC1)O[C@@]1(CC[C@@H](C)[C@@H](CC(C)O)O1)[C@@H]2C (stereo not given in full)
2. O=C1NCCS(=O)(=O)/C1=C\C=C\c1cccc(C(F)(F)F)c1
3. Cc1cc2c(cc1Cl)SC(NNc1ccc([N+](=O)[O-])cc1)=NS2(=O)=O
4. CC#CC(O)(C(=O)OC1CC2CCC(C1)N2C)C1CCCC1 (stereo not given)
5. CC(=O)OCC(Br)C1(C)CCC(C(C)(C)Br)O1 (stereo not given)
6. Nc1nc(N)c2nc(CNc3ccc(C(=O)NC(CCCCNC(=O)c4ccccc4C(=O)O)C(=O)O)cc3)cnc2n1 (stereo not given)
7. C[N+](C)=c1nc(N2CCc3ccccc3C2)ss1

Result:
1. 4.45 µM
2. 7.67 µM
3. > 10 µM
4. > 100 µM
5. > 100 µM
6. > 100 µM
7. > 100 µM

====

tested on: HT29 colon; test: NCI tumour cell line growth inhibition, 48 h
Assignment: determine reported TGI for the given compounds.

Here are 5 compounds together with their reported answers.
compound	TGI
CC(Br)C(=O)Nc1ccc(C(=O)O)c(O)c1 (centres undefined)	> 100 µM
CCOC(OC1=C(C#N)CCCC1)C(C)[Se]c1ccccc1 (centres undefined)	> 100 µM
CCC1CN2CCC3(c4ccccc4)CC(C(=O)OC)=CC1C23 (centres undefined)	31.7 µM
CC(C)(C)S(=O)OC12CC3CC(CC(C3)C1)C2 (centres undefined)	> 100 µM
CCOC(=O)/C(C#N)=C/c1ccc2c(c1)CC1(C2)Cc2cc(CC)c(C(C)O)cc2C1 (centres undefined)	39.5 µM

For each listed entry, give its TGI.
1. CC(=O)c1cc(C)n2c1CS[C@@H]2c1ccccc1
2. Cc1ncc([N+](=O)[O-])n1CCNC(=O)Cn1c([N+](=O)[O-])cnc1C
3. O=C(CCN1CCOCC1)C(=Cc1ccccc1)C(=O)CCN1CCOCC1
4. COc1cc(/C=C/C(=O)c2cccnc2Nc2ccc(F)cc2)cc(OC)c1OC

Result:
1. > 100 µM
2. > 100 µM
3. 8.35 µM
4. 6.69 µM

====

Would you mind telling me the reported GI50 of each entry?
tested on: DU-145 prostate

Solved entries:
CCN(CC)CCSCCCNc1c2ccc(Cl)cc2nc2ccc(OC)cc12 0.633 µM
Cc1ccc(-c2nc(N3CCCNCC3)c3oc(-c4ccc(C)cc4)nc3n2)cc1 1.89 µM

Please supply GI50 for each of the following items, keeping them in order.
1. COc1ccc(OC)c(Nc2nc(-c3c(C)nc4sccn34)cs2)c1
2. Oc1ccc(Cl)cc1CNc1nc2ccccc2[nH]1
3. CO[C@H]1CC(c2ccc[nH]2)=N[C@]12O[C@@H](C)C[C@@H]1CCCCCCCc3ccc([nH]3)[C@H]12
4. Cn1c(=O)c(Oc2ccc(F)cc2F)cc2cnc(NCCS(C)(=O)=O)nc21

Result:
1. > 100 µM
2. 16.2 µM
3. 1.49 µM
4. > 25 µM

Go through the list and state GI50 for each entry.
1. ClCc1ccc(Cn2cnc3c(Cl)nc(Cl)nc32)cc1
2. [Cl][Cd][Cl]
3. COc1ccc(Nc2cc(C)nc(N3CCN(c4ccnc5cc(Cl)ccc45)CC3)n2)cc1

Result:
5.69 µM
24 µM
6.57 µM

====

Kindly state GI50 for each of the entries shown.
test system: SF-268 CNS; assay: NCI tumour cell line growth inhibition, 48 h

Known results for compounds:
CC(C)CCN[C@@H]1CCc2cc(O)c(N3CC(=O)NS3(=O)=O)c(F)c2C1 > 100 µM
COc1ccc(Nc2c3ccccc3nc3[nH]c4ccccc4c23)cc1 17.2 µM
COC(=O)[C@@H](C)C[C@H](Cc1ccccc1)NC(=O)c1csc([C@@H](C[C@H](C(C)C)N(C)C(=O)[C@H](C)NC(=O)[C@H]2CCCCN2C)OC(C)=O)n1 1.65 µM

Here is the next item to consider.
response.value for `Cc1cc(OCc2nnc3n2N=C(c2ccc(Cl)cc2Cl)CS3)ccc1Cl` (field: GI50) = 73.4 µM

====

tested on: HOP-92 NSCLC; assay: NCI tumour cell line growth inhibition, 48 h
measure-name: TGI

Reference set (5 entries):
compound	TGI
Cc1ccccc1-n1c(C)nc(-c2ccccc2)cc1=O	> 100 µM
C/C(=N\Nc1nc2ccccc2s1)c1cc(C)ncn1	> 30.6 µM
NCCSCCc1ccccc1	> 100 µM
Cc1ccc(S(=O)(=O)NCCCSCCSCCCN)cc1	> 100 µM
O=C1NC2(CCN(CCCC3(c4ccc(F)cc4)OCCO3)CC2)Oc2ccccc21	> 100 µM

Answer for every listed entry: what is its TGI? The entries follow.
1. CCN(CC)CCO/N=C1/C=C2CCC3C(CC[C@@]4(C)C3CC[C@]4(C)O)[C@@]2(C)CC1 (stereo partly specified)
2. CCC1CN2CCC3(c4ccccc4)CC(C(=O)OC)=CC1C23 (stereo unspecified)

Result:
1. 21 µM
2. 25.9 µM
